Target: T1, orthogonal hCD122 receptor (hoRb), hCD122 with H133D and Y134F (human, UniProt P14784 27-550); further: reference of the scale not given here
T1 sequence: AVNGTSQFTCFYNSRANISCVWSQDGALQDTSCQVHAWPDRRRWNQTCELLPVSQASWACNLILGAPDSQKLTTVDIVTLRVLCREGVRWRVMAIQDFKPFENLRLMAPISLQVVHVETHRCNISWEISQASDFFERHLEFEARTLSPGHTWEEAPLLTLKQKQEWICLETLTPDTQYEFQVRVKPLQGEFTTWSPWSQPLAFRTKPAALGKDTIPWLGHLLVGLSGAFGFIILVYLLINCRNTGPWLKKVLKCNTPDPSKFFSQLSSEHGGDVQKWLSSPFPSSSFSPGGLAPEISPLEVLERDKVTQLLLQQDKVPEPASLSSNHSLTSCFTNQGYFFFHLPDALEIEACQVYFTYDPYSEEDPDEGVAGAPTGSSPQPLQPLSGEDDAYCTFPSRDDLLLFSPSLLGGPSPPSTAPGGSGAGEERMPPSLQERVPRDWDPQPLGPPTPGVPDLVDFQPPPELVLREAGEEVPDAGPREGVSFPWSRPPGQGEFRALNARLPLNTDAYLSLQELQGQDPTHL
Test: cell-based or functional assay
Mark condition met for reported Relative Proliferation Fold Change NKL 1:50 of 0.7 fold or greater; mark condition not met for anything smaller.

Asked: Hello, I need to know if SQVLSA (ligand) APTSSSTKKTQLQLSQLLVLLSAILNGINNYKNPKLTRMLTFKFYMPKKATELKHLQCLEEELKPLEEVLNLAQSKNFHLRPRDLISNINVIVLELKGSETTFMCEYADETATIVEFLNRWITFCQSIISTLT has measured Relative Proliferation Fold Change NKL 1:50 not below 0.7 fold. Thanks!
Given back: condition met

Asked: Hello, I need to know if SQVLHA (ligand) APTSSSTKKTQLQLSQLLVLLHAILNGINNYKNPKLTRMLTFKFYMPKKATELKHLQCLEEELKPLEEVLNLAQSKNFHLRPRDLISNINVIVLELKGSETTFMCEYADETATIVEFLNRWITFCQSIISTLT has measured Relative Proliferation Fold Change NKL 1:50 not below 0.7 fold. Thanks!
Given back: condition met

Asked: Hello, I need to know if L18M, SQVLKA (ligand) APTSSSTKKTQLQLSQLMVLLKAILNGINNYKNPKLTRMLTFKFYMPKKATELKHLQCLEEELKPLEEVLNLAQSKNFHLRPRDLISNINVIVLELKGSETTFMCEYADETATIVEFLNRWITFCQSIISTLT has measured Relative Proliferation Fold Change NKL 1:50 not below 0.7 fold. Thanks!
Given back: condition met

Asked: Hello, I need to know if SQVLEA (ligand) APTSSSTKKTQLQLSQLLVLLEAILNGINNYKNPKLTRMLTFKFYMPKKATELKHLQCLEEELKPLEEVLNLAQSKNFHLRPRDLISNINVIVLELKGSETTFMCEYADETATIVEFLNRWITFCQSIISTLT has measured Relative Proliferation Fold Change NKL 1:50 not below 0.7 fold. Thanks!
Given back: condition not met

Asked: Hello, I need to know if SQVLIA (ligand) APTSSSTKKTQLQLSQLLVLLIAILNGINNYKNPKLTRMLTFKFYMPKKATELKHLQCLEEELKPLEEVLNLAQSKNFHLRPRDLISNINVIVLELKGSETTFMCEYADETATIVEFLNRWITFCQSIISTLT has measured Relative Proliferation Fold Change NKL 1:50 not below 0.7 fold. Thanks!
Given back: condition not met

Asked: Hello, I need to know if M39V, SQVLKA (ligand) APTSSSTKKTQLQLSQLLVLLKAILNGINNYKNPKLTRVLTFKFYMPKKATELKHLQCLEEELKPLEEVLNLAQSKNFHLRPRDLISNINVIVLELKGSETTFMCEYADETATIVEFLNRWITFCQSIISTLT has measured Relative Proliferation Fold Change NKL 1:50 not below 0.7 fold. Thanks!
Given back: condition met
